Target: PRMT5/MEP50 (Homo sapiens, UniProt O14744)
Construct: Flag-PRMT5; 6His-MEP50
Sequence (O14744 with tags, fused parts or gaps): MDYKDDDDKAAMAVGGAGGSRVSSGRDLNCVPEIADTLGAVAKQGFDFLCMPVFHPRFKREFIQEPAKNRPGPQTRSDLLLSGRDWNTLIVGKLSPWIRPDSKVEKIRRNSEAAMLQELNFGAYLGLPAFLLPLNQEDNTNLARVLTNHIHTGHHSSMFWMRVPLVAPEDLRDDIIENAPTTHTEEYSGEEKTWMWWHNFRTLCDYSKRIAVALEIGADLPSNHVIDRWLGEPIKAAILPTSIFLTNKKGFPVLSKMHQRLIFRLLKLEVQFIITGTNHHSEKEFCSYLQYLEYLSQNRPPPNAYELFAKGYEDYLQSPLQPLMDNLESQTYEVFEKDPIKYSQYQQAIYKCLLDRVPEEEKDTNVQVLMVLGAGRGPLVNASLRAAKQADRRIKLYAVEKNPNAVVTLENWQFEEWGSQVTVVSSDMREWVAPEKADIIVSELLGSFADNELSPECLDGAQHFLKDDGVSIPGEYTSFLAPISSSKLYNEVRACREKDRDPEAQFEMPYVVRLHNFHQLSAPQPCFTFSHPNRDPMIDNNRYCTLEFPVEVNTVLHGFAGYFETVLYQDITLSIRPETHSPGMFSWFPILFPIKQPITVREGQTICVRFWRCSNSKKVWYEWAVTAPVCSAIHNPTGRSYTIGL
Sequence (Q9BQA1 with tags, fused parts or gaps partner): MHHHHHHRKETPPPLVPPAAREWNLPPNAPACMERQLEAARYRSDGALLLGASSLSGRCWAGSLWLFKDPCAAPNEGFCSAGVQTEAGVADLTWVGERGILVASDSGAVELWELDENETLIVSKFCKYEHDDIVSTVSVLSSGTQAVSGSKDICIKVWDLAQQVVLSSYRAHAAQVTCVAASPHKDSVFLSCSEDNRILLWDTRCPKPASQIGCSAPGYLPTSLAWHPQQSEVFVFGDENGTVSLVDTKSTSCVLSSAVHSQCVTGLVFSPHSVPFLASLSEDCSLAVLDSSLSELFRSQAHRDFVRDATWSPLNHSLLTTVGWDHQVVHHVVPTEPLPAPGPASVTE
Test: PRMT5 Biochemical Assay (PRMT5/MEP50 enzyme assay on peptide substrate, 3H-SAM Flashplate)
Text: General Materials. S-adenosylmethionine (SAM), S-adenosylhomocysteine (SAH), bicine, KCl, Tween20, dimethylsulfoxide (DMSO), bovine skin gelatin (BSG), and Tris(2-carboxyethyl)phosphine hydrochloride solution (TCEP) were purchased from Sigma-Aldrich at the highest level of purity possible. ^3H-SAM was purchase from American Radiolabeled Chemicals with a specific activity of 80 Ci/mmol. 384-well streptavidin Flashplates were purchased from PerkinElmer. Substrates. […]
I'd be grateful if you could share measured IC50 for these entries.

Solved cases below.
Given item OC(COCc1cccnc1)CN1CCc2ccccc2C1 (stereo not drawn) [Compound 283] , the value recorded as its IC50 is 10000 to 40000 nM

IC50 for CC1CN(CC(O)COc2cccc(-c3ccc4ncn(C)c4c3)c2)Cc2ccccc21 (stereo not drawn) [Compound 101] is 1000 to 10000 nM

Consider COc1ccc(-c2cccc(OCC(O)CN3CCc4ccccc4C3)c2)c(C)c1 (stereo not drawn) [Compound 90] . Its measured IC50 is 101 to 1000 nM

Query OC(COc1cccc(-c2ccccc2)c1)CN1CCc2ccccc2C1 (stereo not drawn) [Compound 43] yields IC50 of 101 to 1000 nM

So for CC(C)(C)OCc1cccc(-c2cccc(OCC(O)CN3CCc4ccccc4C3)c2)c1 (stereo not drawn) [Compound 150] , the logged IC50 turned out to be 101 to 1000 nM

We next turn to a different compound, shown below.
IC50 measured on OC(COc1cccc(CNC2CCCCC2)c1)CN1CCc2ccccc2C1 (stereo not drawn) [Compound 4] = 101 to 1000 nM

* * *

Biological target: PRMT5/MEP50 (Homo sapiens)
Construct: Flag-PRMT5; 6His-MEP50
Experiment: PRMT5 Biochemical Assay (PRMT5/MEP50 enzyme assay on peptide substrate, 3H-SAM Flashplate)
OUTCOME MEASURE: IC50

Field: example entries. Status: answers known.
For this molecule ( OC(COc1ccc(OCC(O)CN2CCc3ccccc3C2)cc1)CN1CCc2ccccc2C1 (stereo not shown) [Compound 3] ), measured IC50 is 0.101 to 1 µM

Notebook: O=C(c1cccc(-c2cccc(OCC(O)CN3CCc4ccccc4C3)c2)c1)N1CCCC1 (stereo not shown) [Compound 185] , IC50 read as 0.101 to 1 µM

Record OC(COCC1COc2ccccc2O1)CN1CCc2ccccc2C1 (stereo not shown) [Compound 300] . Reported IC50: 0.101 to 1 µM

// sample OC(COc1cccc(-c2ccccc2Oc2ccccc2)c1)CN1CCc2ccccc2C1 (stereo not shown) [Compound 167] , its IC50 was 0.101 to 1 µM

Please give IC50, item by item, for the list that follows.
1. Cc1ccc(F)c(-c2cccc(OCC(O)CN3CCc4ccccc4C3)c2)c1 (stereo not shown) [Compound 138]
2. O=C(Cn1cnc2ccc(-c3cccc(OCC(O)CN4CCc5ccccc5C4)c3)cc21)N1CCOCC1 (stereo not shown) [Compound 264]
3. Cn1cnc2cc(-c3cccc(OCC(O)CN4CCc5ccccc5C4)c3)ccc21 (stereo not shown) [Compound 60]
4. O=S1(=O)CCN(c2ccc(OCC(O)CN3CCc4ccccc4C3)cc2)CC1 (stereo not shown) [Compound 18]
5. CC(=O)N1CCC(Nc2cc(CNCC(O)CN3CCc4ccccc4C3)ccn2)CC1 (stereo not shown) [Compound 313]

Solution:
1. 0.101 to 1 µM
2. 0.101 to 1 µM
3. 0.101 to 1 µM
4. 1 to 10 µM
5. > 10 µM

Hey, can you go through the list below and give me IC50 for every item?
1. COc1cccc2c1CN(CC(O)COc1cccc(-c3ccc4ncn(C)c4c3)c1)CC2 (stereo not shown) [Compound 100]
2. COc1ncc(-c2cccc(OCC(O)CN3CCc4ccccc4C3)c2)cn1 (stereo not shown) [Compound 153]
3. Cn1cnc2ccc(-c3cccc(OCC(O)CN4CCc5ccc(Cl)cc5C4)c3)cc21 (stereo not shown) [Compound 214]
4. N#Cc1ccc(-c2cccc(OCC(O)CN3CCc4ccccc4C3)c2)cc1 (stereo not shown) [Compound 94]

Solution:
1. 1 to 10 µM
2. 1 to 10 µM
3. 1 to 10 µM
4. 0.101 to 1 µM
